Tested on: PC-3
protocol-description: Antiproliferative activity against human PC-3 cells assessed as inhibition of cell proliferation by CCK-8 assay
Type: functional, cell-based
measurement-label: IC50

INSERT INTO assay_data (structure_as_smiles, observed_result) VALUES
  ('C[C@H]1COc2c(N3CCN(C)CC3)c(F)cc3c(=O)c(-c4nnc(NC(=O)CCCCCCC(=O)NO)s4)cn1c23', '600 nM');

###

Tested on: HeLa
protocol-description: Anticancer activity against human HeLa cells assessed as reduction in cell viability incubated for 72 hrs by MTT assay
Format: functional, cell-based
pIC50: −log10 of the molar value.
Each entry below carries its recorded pIC50.
measurement-label: pIC50

INSERT INTO assay_data (structure_as_smiles, measurement_label, observed_result) VALUES
  ('N=C(NS(=O)(=O)c1ccc(Cl)cc1)N1CCN(c2cc3c(cc2F)c(=O)c(C(=O)O)cn3C2CC2)CC1', 'pIC50', 7.49),
  ('CCn1cc(C(=O)O)c(=O)c2cc(F)c(N3CCN(C(=N)NS(=O)(=O)c4ccc(C)cc4)CC3)cc21', 'pIC50', 7.49),
  ('CCn1cc(C(=O)O)c(=O)c2cc(F)c(N3CCN(C(=N)NS(=O)(=O)c4ccccc4C(F)(F)F)CC3)cc21', 'pIC50', 7.49),
  ('N=C(NS(=O)(=O)c1ccccc1)N1CCN(c2cc3c(cc2F)c(=O)c(C(=O)O)cn3C2CC2)CC1', 'pIC50', 7.49),
  ('N=C(NS(=O)(=O)c1ccccc1Cl)N1CCN(c2cc3c(cc2F)c(=O)c(C(=O)O)cn3C2CC2)CC1', 'pIC50', 7.49),
  ('CCn1cc(C(=O)O)c(=O)c2cc(F)c(N3CCN(C(=N)NS(=O)(=O)c4ccccc4Cl)CC3)cc21', 'pIC50', 7.49),
  ('Cc1ccc(S(=O)(=O)NC(=N)N2CCN(c3cc4c(cc3F)c(=O)c(C(=O)O)cn4C3CC3)CC2)cc1', 'pIC50', 7.49),
  ('N=C(NS(=O)(=O)c1ccccc1C(F)(F)F)N1CCN(c2cc3c(cc2F)c(=O)c(C(=O)O)cn3C2CC2)CC1', 'pIC50', 7.49),
  ('N=C(NS(=O)(=O)c1ccc(C(F)(F)F)cc1)N1CCN(c2cc3c(cc2F)c(=O)c(C(=O)O)cn3C2CC2)CC1', 'pIC50', 7.49),
  ('CCn1cc(C(=O)O)c(=O)c2cc(F)c(N3CCN(C(=N)NS(=O)(=O)c4ccc(C(F)(F)F)cc4)CC3)cc21', 'pIC50', 7.49),
  ('CCn1cc(C(=O)O)c(=O)c2cc(F)c(N3CCN(C(=N)NS(=O)(=O)c4ccc(Cl)cc4)CC3)cc21', 'pIC50', 7.49),
  ('N=C(NS(=O)(=O)c1cccc(Cl)c1)N1CCN(c2cc3c(cc2F)c(=O)c(C(=O)O)cn3C2CC2)CC1', 'pIC50', 7.49),
  ('CCn1cc(C(=O)O)c(=O)c2cc(F)c(N3CCN(C(=N)NS(=O)(=O)c4ccccc4)CC3)cc21', 'pIC50', 7.49),
  ('CCn1cc(C(=O)O)c(=O)c2cc(F)c(N3CCN(C(=N)NS(=O)(=O)c4cccc(Cl)c4)CC3)cc21', 'pIC50', 7.49);
